Entries and their pest or weed control at 125 g/ha
# Test system: blackgrass (Alopecurus myosuroides)
# measurement-notes: Test A postemergence
# Assay type: in vivo
# condition-notes: Alopecurus myosuroides, post-emergence, 240 h, 125 g ai/ha, Postemergence; visual injury after approximately 10 d; 0 to 100 scale where 0 is no effect and 100 is complete control; read-out: Plant response rating, Blackgrass
endpoint-name: pest or weed control at 125 g/ha

| chemical-structure | assay-system | result |
| --- | --- | --- |
| Cc1c(F)cccc1NC(=O)[C@H]1C(=O)N(C)C[C@@H]1c1cc(F)cc(Cl)c1 | blackgrass (Alopecurus myosuroides) | 60% |
| CC(C)COc1cccc([C@H]2CNC(=O)[C@@H]2C(=O)Nc2ccccc2F)c1 | blackgrass (Alopecurus myosuroides) | 0% |
| Cc1cc(F)ccc1NC(=O)[C@H]1C(=O)N(C)C[C@@H]1c1ccc(C(F)(F)F)cc1 | blackgrass (Alopecurus myosuroides) | 30% |
| CSc1ccccc1NC(=O)[C@H]1C(=O)N(C)C[C@@H]1c1cc(C)c(Br)c(C)c1 | blackgrass (Alopecurus myosuroides) | 0% |
| CN1CC[C@H](c2cccc(Cl)c2)[C@@H](C(=O)Nc2cccc(F)c2F)C1=O | blackgrass (Alopecurus myosuroides) | 20% |
| Cc1ccc([C@H]2CNC(=O)[C@@H]2C(=O)Nc2cccc(F)c2C)cc1C | blackgrass (Alopecurus myosuroides) | 40% |
| CSc1ccccc1NC(=O)[C@H]1C(=O)NC[C@@H]1c1ccc(C)c(C)c1 | blackgrass (Alopecurus myosuroides) | 0% |
| O=C(Nc1ccccc1F)[C@H]1C(=O)N(C2CC2)CC[C@@H]1c1ccccc1 | blackgrass (Alopecurus myosuroides) | 0% |
| CC(=O)Oc1ccc(F)c(NC(=O)[C@H]2C(=O)N(C)C[C@@H]2c2cc(F)cc(F)c2)c1 | blackgrass (Alopecurus myosuroides) | 0% |
| CN1C[C@H](c2ccc(C(F)(F)F)cc2)[C@@H](C(=O)Nc2ccccc2Br)C1=O | blackgrass (Alopecurus myosuroides) | 40% |
| O=C1NC[C@H](c2ccc3c(c2)OCO3)[C@H]1C(=O)Nc1ccc(F)cc1F | blackgrass (Alopecurus myosuroides) | 0% |
| O=C(Nc1cccc(F)c1F)[C@H]1C(=O)N(C2CC2)CC[C@@H]1c1ccc(F)cc1 | blackgrass (Alopecurus myosuroides) | 0% |

###

Entries and their Plant response rating, Wheat
# Tested on: wheat (Triticum aestivum)
# measurement-notes: Test A postemergence
# Format: in vivo
# condition-notes: Postemergence, 500 g ai/ha; 0 to 100 scale where 0 is no effect and 100 is complete control
endpoint-name: Plant response rating, Wheat

| molecule | quantitative-result |
| --- | --- |
| CC(C)=CCN1CC(c2cccc(C(F)(F)F)c2)C(C(=O)Nc2cccc(F)c2F)C1=O (stereo not drawn) | 40 |
| O=C1NCC(c2ccc(C(F)(F)F)c(F)c2)C1C(=O)Nc1ccc(F)cc1F (racemic) | 20 |
| CCc1cccc(C2CN(C)C(=O)C2C(=O)Nc2ccccc2F)c1 (stereo not drawn) | 60 |
| O=C1NCC(c2cc(F)cc(Cl)c2)C1C(=O)Nc1cccc(F)c1F (stereo not drawn) | 60 |
| CN1CC(c2cccc(OC(F)F)c2)C(C(=O)Nc2ccccc2F)C1=O (stereo not drawn) | 70 |
| CN1CC(c2ccccc2)C(C(=S)Nc2ccccc2F)C1=O (stereo not drawn) | 0 |

###

# System: barnyardgrass (Echinochloa crus-galli)
# measurement-notes: Test B flooded paddy test
# Format: in vivo
# condition-notes: Echinochloa crus-galli, Flood, 250 g ai/ha; scale of 0 to 100 where 0 is no effect and 100 is complete control; read-out: Barnyardgrass plant response rating
Please mark class 1 if the recorded pest or weed control at 250 g/ha is equal to or greater than 50%, and class 0 if it falls below.

| chemical-structure | assay-system | answer-label |
| --- | --- | --- |
| Cc1cc(F)cc([C@H]2CN(C)C(=O)[C@@H]2C(=O)Nc2ccc(F)c(F)c2F)c1 | barnyardgrass (Echinochloa crus-galli) | class 1 |
| CSc1ccccc1NC(=O)[C@H]1C(=S)NC[C@@H]1c1ccc(C)c(C)c1 | barnyardgrass (Echinochloa crus-galli) | class 0 |
| CSc1ccccc1NC(=O)[C@H]1C(=O)N(C)C[C@@H]1c1cc(C)c(C)c(C)c1 | barnyardgrass (Echinochloa crus-galli) | class 1 |
| COc1cc(OC)cc([C@H]2CN(C)C(=O)[C@@H]2C(=O)Nc2ccccc2SC)c1 | barnyardgrass (Echinochloa crus-galli) | class 0 |
| CSc1ccccc1NC(=O)[C@H]1C(=O)N(C)C[C@@H]1c1ccc(C)c(C)c1 | barnyardgrass (Echinochloa crus-galli) | class 0 |
| COc1ccccc1NC(=O)[C@H]1C(=O)N(C)C[C@@H]1c1ccc(C(F)(F)F)cc1 | barnyardgrass (Echinochloa crus-galli) | class 0 |
| COc1cc(C(F)(F)F)ccc1[C@H]1CN(C)C(=O)[C@@H]1C(=O)Nc1cccc(F)c1F | barnyardgrass (Echinochloa crus-galli) | class 1 |

###

Entries and their Corn plant response rating
# Test system: corn (Zea mays)
# measurement-notes: Test A postemergence
# Assay type: in vivo
# condition-notes: 125 g ai/ha, postemergence; visual injury rating on 0 to 100 scale (0 no effect, 100 complete control), approx. 10 d

| compound | Corn plant response rating |
| --- | --- |
| O=C1NCC(c2cccc(OCC(F)F)c2)C1C(=O)Nc1ccc(F)c(F)c1F (centres unmarked) | 0 |
| O=C1NCC(c2ccc(Br)cc2)C1C(=O)Nc1ccccc1Cl (centres unmarked) | 0 |
| Cc1ccc(C2CNC(=O)C2C(=O)Nc2ccccc2S(C)(=O)=O)c(F)c1 (racemic) | 0 |
| COCc1cccc(C2CNC(=O)C2C(=O)Nc2ccccc2Cl)c1 (centres unmarked) | 0 |
| O=C1NCC(c2ccc(Br)cc2)C1C(=O)Nc1cccc(F)c1 (centres unmarked) | 0 |
| CN1CC(c2cccc(OC(F)(F)C(F)F)c2)C(C(=O)Nc2ccc(F)cc2F)C1=O (centres unmarked) | 80 |
| CN1CC(c2ccc(C(F)(F)F)c(F)c2)C(C(=O)Nc2ccccc2S(C)(=O)=O)C1=O (centres unmarked) | 50 |
| O=C1NCC(c2cc(F)cc(Cl)c2)C1C(=O)Nc1ccc(F)cc1F (centres unmarked) | 0 |

###

# Tested on: velvetleaf (Abutilon theophrasti)
# measurement-notes: Test G Post-Emergence Protocol
# Type: in vivo
# condition-notes: Abutilon theophrasti, post-emergence, 312 h, 15.625 g ai/ha, evaluated after 13 days (100=total damage to plant; 0=no damage to plant), read-out: Velvetleaf damage rating
endpoint-name: pest or weed control at 15.625 g/ha (%)

| compound | unit-of-measure | quantitative-result |
| --- | --- | --- |
| COc1ccc(OC)c([C@H]2CN(C)C(=O)[C@@H]2C(=O)Nc2ccccc2F)c1 (racemic) [Compound 1453] | % | 0 |
| CN1C[C@H](c2ccc(C(F)(F)F)cc2)[C@@H](C(=O)Nc2cccnc2S(C)(=O)=O)C1=O (racemic) [Compound 1789] | % | 0 |
| COc1ccc(C2CN(C)C(=O)C2C(=O)Nc2cccc(F)c2F)cc1C (stereo not shown) [Compound 1688] | % | 0 |
| CN1C[C@H](c2ccc(C(F)(F)F)cc2)[C@@H](C(=O)Nc2cccc(Cl)c2S(C)(=O)=O)C1=O (racemic) [Compound 1661] | % | 0 |
| CN1C[C@@H](c2ccc(C(F)(F)F)cc2)[C@H](C(=O)Nc2ccnnc2)C1=O (racemic) [Compound 1518] | % | 0 |
| COc1nccc(NC(=O)[C@@H]2C(=O)N(C)C[C@H]2c2ccc(C(F)(F)F)cc2)n1 (racemic) [Compound 1640] | % | 0 |
| CCc1nc(NC(=O)[C@@H]2C(=O)N(C)C[C@H]2c2ccc(C(F)(F)F)cc2)n[nH]1 (racemic) [Compound 1610] | % | 0 |

###

# Test system: pigweed (Amaranthus retroflexus)
# measurement-notes: Test A postemergence
# Assay type: in vivo
# condition-notes: Amaranthus retroflexus, post-emergence, 240 h, 125 g ai/ha, postemergence; visual injury on 0 to 100 scale (0 no effect, 100 complete control), approx. 10 d; read-out: Pigweed plant response rating
Entries and their pest or weed control at 125 g/ha
endpoint-name: pest or weed control at 125 g/ha (%)

| compound | quantitative-result |
| --- | --- |
| COc1cccc([C@H]2CNC(=O)[C@@H]2C(=O)Nc2cccc(F)c2F)c1F [Compound 1061] | 0 |
| COc1cccc([C@H]2CN(C)C(=O)[C@@H]2C(=O)Nc2cccc(F)c2F)c1 [Compound 1062] | 0 |
| CCc1cc(CC)cc([C@H]2CNC(=O)[C@@H]2C(=O)Nc2ccccc2F)c1 [Compound 1138] | 0 |
| CN1C[C@H](c2cc(C(F)F)cs2)[C@@H](C(=O)Nc2cccc(F)c2C#N)C1=O [Compound 1092] | 20 |
| CC(C)Oc1ccc([C@H]2CNC(=O)[C@@H]2C(=O)Nc2cccc(F)c2F)cc1 [Compound 1136] | 0 |
| CC(C)COc1cccc([C@H]2CN(C)C(=O)[C@@H]2C(=O)Nc2ccc(F)cc2F)c1 [Compound 1030] | 0 |
| CCc1cccc([C@H]2CCNC(=O)[C@@H]2C(=O)Nc2cccc(F)c2F)c1 [Compound 1058] | 0 |
| CN1CC(c2cccc(O)c2)C(C(=O)Nc2cccc(F)c2F)C1=O (centres unmarked) [Compound 1130] | 0 |
